# MEASURED_TARGET: 5-hydroxytryptamine receptor 1B (Homo sapiens, UniProt P28222)
# Sequence (P28222 whole entry): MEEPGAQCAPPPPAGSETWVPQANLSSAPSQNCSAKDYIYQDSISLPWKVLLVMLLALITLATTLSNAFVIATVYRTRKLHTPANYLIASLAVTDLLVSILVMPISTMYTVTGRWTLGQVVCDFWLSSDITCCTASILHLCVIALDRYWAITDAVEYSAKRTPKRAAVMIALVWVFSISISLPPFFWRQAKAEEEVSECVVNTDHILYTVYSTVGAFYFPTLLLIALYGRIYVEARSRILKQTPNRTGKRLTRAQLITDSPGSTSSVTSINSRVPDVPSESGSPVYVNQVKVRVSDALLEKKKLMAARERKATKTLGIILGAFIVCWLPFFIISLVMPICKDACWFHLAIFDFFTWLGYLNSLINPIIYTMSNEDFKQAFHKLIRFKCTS
# ASSAY_COMMENT: Displacement of specific [3H]5-HT binding to cloned human 5-hydroxytryptamine 1B receptor expressed in CHO cells
MEASURE_NAME: IC50 (nM)

Here is how some molecules turned out for IC50.
- CC(CC1(F)CCN(CCCc2c[nH]c3ccc(-n4cnnc4)cc23)CC1)c1ccccc1 (centres undefined): 28
- CN(Cc1ccccc1C(F)(F)F)[C@H]1CCN(CCCc2c[nH]c3ccc(-n4cnnc4)cc23)C[C@H]1F: 220
- CN(Cc1ccccc1)[C@H]1CCN(CCCc2c[nH]c3ccc(-n4cnnc4)cc23)C[C@H]1F: 220
- FC(F)(Cc1c[nH]c2ccc(-n3cnnc3)cc12)CN1CCC(CCc2ccccc2)CC1: 5800

1: CC(CN1CCN(CC(F)(F)Cc2c[nH]c3ccc(-n4cnnc4)cc23)CC1)c1ccccc1 (centres undefined)
2: FC1(CCc2ccccc2)CCN(CCCc2c[nH]c3ccc(-n4cnnc4)cc23)CC1
Short answer wanted: higher IC50, 1 or 2 ? # answer = label of selected item
1
(1: 1800 nM, 2: 49 nM)

---

# MEASURED_TARGET: 5-hydroxytryptamine receptor 1B (Homo sapiens, UniProt P28222)
# ASSAY_COMMENT: Displacement of specific [3H]5-HT binding to cloned human 5-hydroxytryptamine 1B receptor expressed in CHO cells
pIC50: −log10 of the molar value.
MEASURE_NAME: pIC50

• CC(CN1CCN(CC(F)Cc2c[nH]c3ccc(-n4cnnc4)cc23)CC1)c1ccc(F)cc1 (stereo unspecified) = 6.51
• Fc1ccccc1CC1(F)CCN(CCCc2c[nH]c3ccc(-n4cnnc4)cc23)CC1 = 8.51
• Fc1cccc(CCN2CCN(CC(F)Cc3c[nH]c4ccc(-n5cnnc5)cc34)CC2)c1 (stereo in doubt; 28) = 6.00
• FC(Cc1c[nH]c2ccc(-n3cnnc3)cc12)CN1CCC(OCc2ccccc2)CC1 (stereo unspecified) = 5.52
• CN(Cc1ccccc1)C1CCN(CC(F)(F)Cc2c[nH]c3ccc(-n4cnnc4)cc23)CC1 = 5.68
• F[C@H]1CN(CCCc2c[nH]c3ccc(-n4cnnc4)cc23)CC[C@@H]1NCc1ccccc1C(F)(F)F = 6.77
• Fc1ccccc1CCN1CCN(CC(F)Cc2c[nH]c3ccc(-n4cnnc4)cc23)CC1 (stereo unspecified) = 6.28
• CC(CN1CCN(CC(F)Cc2c[nH]c3ccc(-n4cnnc4)cc23)CC1)c1ccccc1F (stereo unspecified) = 6.42

a: CN(Cc1ccccc1)C1CCN(CCCc2c[nH]c3ccc(-n4cnnc4)cc23)CC1
b: OC(Cc1c[nH]c2ccc(-n3cnnc3)cc12)CN1CCN(Cc2ccccc2)CC1 (stereo unspecified)
c: FC(F)(Cc1c[nH]c2ccc(-n3cnnc3)cc12)CN1CCC(COc2ccccc2)CC1
d: FC(Cc1c[nH]c2ccc(-n3cnnc3)cc12)CN1CCN(CCc2ccccc2)CC1 (stereo unspecified)
Rank the 4 compounds: largest pIC50 first, smallest last. Response format: the labels, sorted as the prompt asks.
a, b, d, c

P: CN(Cc1ccccc1C(F)(F)F)[C@H]1CCN(CCCc2c[nH]c3ccc(-n4cnnc4)cc23)C[C@@H]1F
Q: Fc1cccc(CCN2CCN(CC(F)(F)Cc3c[nH]c4ccc(-n5cnnc5)cc34)CC2)c1
Please indicate which entry, P or Q , has the lower recorded pIC50 value. Your choice should be expressed through its label.
Q
(Q: 5.80, P: 6.66)

A: FC(Cc1c[nH]c2ccc(-n3cnnc3)cc12)CN1CCC(Cc2ccccc2)CC1 (stereo unspecified)
B: Fc1cccc(CCN2CCN(CC(F)Cc3c[nH]c4ccc(-n5cnnc5)cc34)CC2)c1 (stereo in doubt; 25)
C: Fc1cccc(CCN2CCN(C[C@@H](F)Cc3c[nH]c4ccc(-n5cnnc5)cc34)CC2)c1
D: CN(Cc1ccccc1)[C@H]1CCN(CCCc2c[nH]c3ccc(-n4cnnc4)cc23)C[C@@H]1F
Let's sort these by pIC50, smallest first. Go ahead? Give your ranking as a list of the labels in the requested order.
B, C, A, D

---

# MEASURED_TARGET: Serotonin 1 receptors; 5-HT1B & 5-HT1D (Homo sapiens) (UniProt P28222+P28221)
# ASSAY_COMMENT: Selectivity towards 5-HT1D and to that of 5-HT1B in CHO cells
# Type: cell-based
MEASURE_NAME: Selectivity

- FC1(Cc2ccccc2)CCN(CCCc2c[nH]c3ccc(-n4cnnc4)cc23)CC1: 17
- CN(Cc1ccccc1)C1CCN(CC(F)Cc2c[nH]c3ccc(-n4cnnc4)cc23)CC1 (centres undefined): 22
- CN(Cc1ccccc1C(F)(F)F)[C@H]1CCN(CCCc2c[nH]c3ccc(-n4cnnc4)cc23)C[C@@H]1F: 17
- c1ccc(CC2CCN(CCCc3c[nH]c4ccc(-n5cnnc5)cc34)CC2)cc1: 63

---

# MEASURED_TARGET: Serotonin 1 receptors; 5-HT1B & 5-HT1D (Homo sapiens) (UniProt P28222+P28221)
# ASSAY_COMMENT: Selectivity towards 5-HT1D and to that of 5-HT1B in CHO cells
# Format: cell-based
MEASURE_NAME: Selectivity

Worked examples, 5 compounds total:
- F[C@@H]1CN(CCCc2c[nH]c3ccc(-n4cnnc4)cc23)CC[C@@H]1NCc1ccccc1C(F)(F)F: 23
- Fc1cccc(CC2(F)CCN(CCCc3c[nH]c4ccc(-n5cnnc5)cc34)CC2)c1: 13
- CC(CN1CCN(CC(F)Cc2c[nH]c3ccc(-n4cnnc4)cc23)CC1)c1cccc(F)c1 (stereo unspecified): 311
- CN(Cc1ccccc1)C1CCN(CC(F)(F)Cc2c[nH]c3ccc(-n4cnnc4)cc23)CC1: 60
- CN(Cc1ccccc1)[C@H]1CCN(CCCc2c[nH]c3ccc(-n4cnnc4)cc23)C[C@@H]1F: 6

a: CC(CN1CCN(CC(F)(F)Cc2c[nH]c3ccc(-n4cnnc4)cc23)CC1)c1ccc(F)cc1 (stereo unspecified)
b: CN(Cc1ccccc1)C1CCN(CCCc2c[nH]c3ccc(-n4cnnc4)cc23)CC1
Which shows the larger Selectivity value: a or b ? Output the label that corresponds to your choice.
a

1: CC(CN1CCN(CC(F)Cc2c[nH]c3ccc(-n4cnnc4)cc23)CC1)c1ccc(F)cc1 (stereo unspecified)
2: FC(F)(Cc1c[nH]c2ccc(-n3cnnc3)cc12)CN1CCC(OCc2ccccc2)CC1
Pick one: 1 or 2 . Which one has the lower reported Selectivity? Your answer should be the label attached to the chosen record.
2
(2: 118, 1: 310)

---

# MEASURED_TARGET: 5-hydroxytryptamine receptor 1B (Homo sapiens)
# ASSAY_COMMENT: Displacement of specific [3H]5-HT binding to cloned human 5-hydroxytryptamine 1B receptor expressed in CHO cells
MEASURE_NAME: IC50 (nM)

1: Fc1cccc(CC2(F)CCN(CCCc3c[nH]c4ccc(-n5cnnc5)cc34)CC2)c1
2: CC(CN1CCN(CC(F)Cc2c[nH]c3ccc(-n4cnnc4)cc23)CC1)c1cccc(F)c1 (stereo not drawn)
3: Fc1ccc(CCC2(F)CCN(CCCc3c[nH]c4ccc(-n5cnnc5)cc34)CC2)cc1
// rank above by IC50: first = highest number List the labels, following the order given in the request.
2, 3, 1
(2: 280 nM, 3: 25 nM, 1: 5.3 nM)

---

# MEASURED_TARGET: 5-hydroxytryptamine receptor 1B (Homo sapiens, UniProt P28222)
# ASSAY_COMMENT: Displacement of specific [3H]5-HT binding to cloned human 5-hydroxytryptamine 1B receptor expressed in CHO cells
MEASURE_NAME: IC50 (nM)

• CN(Cc1ccccc1)C1CCN(CC(F)Cc2c[nH]c3ccc(-n4cnnc4)cc23)CC1 (stereo not drawn) = 1200

P: Fc1ccccc1CCC1(F)CCN(CCCc2c[nH]c3ccc(-n4cnnc4)cc23)CC1
Q: FC(F)(Cc1c[nH]c2ccc(-n3cnnc3)cc12)CN1CCC(OCc2ccccc2)CC1
Which of these two has the smaller recorded IC50: P or Q ? Pick one; state its label.
P
(P: 16 nM, Q: 1000 nM)
